For each record, write down the corresponding IC50.
# system.name: Acetylcholinesterase (Homo sapiens, UniProt P22303)
# Sequence (P22303 whole entry): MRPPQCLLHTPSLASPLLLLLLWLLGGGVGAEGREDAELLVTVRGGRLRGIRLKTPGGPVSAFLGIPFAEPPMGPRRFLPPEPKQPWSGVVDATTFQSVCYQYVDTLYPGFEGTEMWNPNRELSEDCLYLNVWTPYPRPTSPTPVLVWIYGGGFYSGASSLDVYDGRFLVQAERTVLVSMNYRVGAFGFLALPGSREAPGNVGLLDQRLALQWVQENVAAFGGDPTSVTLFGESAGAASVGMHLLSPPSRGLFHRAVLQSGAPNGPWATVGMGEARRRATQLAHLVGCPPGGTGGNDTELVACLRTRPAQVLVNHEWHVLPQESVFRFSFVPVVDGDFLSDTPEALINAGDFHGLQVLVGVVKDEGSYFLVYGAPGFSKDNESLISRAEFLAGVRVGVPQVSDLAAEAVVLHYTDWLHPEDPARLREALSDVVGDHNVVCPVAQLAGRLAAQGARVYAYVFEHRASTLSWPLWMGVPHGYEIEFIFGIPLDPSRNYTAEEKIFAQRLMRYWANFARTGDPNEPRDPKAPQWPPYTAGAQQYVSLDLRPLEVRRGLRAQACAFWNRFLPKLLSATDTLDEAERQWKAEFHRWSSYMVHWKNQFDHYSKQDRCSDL
# experiment.summary: Inhibition of Acetylcholinesterase from human red blood cells
Give bare numbers, in µM.

Give measured IC50 for every item shown.
1. CCCCCCCSC(=O)OCC[N+](C)(C)C
2. CCc1ccccc1SC(=O)OCC[N+](C)(C)C.[Cl-]
3. CC(C)CCSC(=O)OCC[N+](C)(C)C

Reply text:
50
50
50
